- Tested on: E. coli NIH JC-2 (IFO 12734)
attribute measured: MIC

| compound | readout value |
| --- | --- |
| CNCC1CCN(c2nc3c(cc2F)c(=O)c(C(=O)O)cn3C2COC2)C1 (centres unmarked) [Compound 70] | 1.56 µg/mL |
| N=CNC1CCN(c2c(F)c(N)c3c(=O)c(C(=O)O)cn(C4COC4)c3c2F)C1 (centres unmarked) [Compound 110] | 0.78 µg/mL |
| CN1CCN(c2c(F)cc3c(=O)c(C(=O)O)cn(C4COC4)c3c2F)CC1 [Compound 11] | 0.2 µg/mL |
| CNC1CCN(c2c(F)cc3c(=O)c(C(=O)O)cn(C4COC4)c3c2F)C1 (centres unmarked) [Compound 44] | 0.39 µg/mL |
| CC1CN(c2c(F)cc3c(=O)c(C(=O)O)cn(C4COC4)c3c2F)CC(C)N1 (centres unmarked) [Compound 14] | 0.2 µg/mL |
| CC(=N)N1CCN(c2c(F)c(N)c3c(=O)c(C(=O)O)cn(C4COC4)c3c2F)CC1 [Compound 109] | 0.39 µg/mL |
| CN1CCN(c2nc3c(cc2F)c(=O)c(C(=O)O)cn3C2COC2)CC1 [Compound 61] | 0.39 µg/mL |
| NC1CCN(c2nc3c(cc2F)c(=O)c(C(=O)O)cn3C2COC2)C1 (centres unmarked) [Compound 65] | 0.2 µg/mL |
